Source listed as PubChem BioAssay (NCI).

# Tested on: LOX IMVI melanoma
# assay: NCI-60 one-dose screen, 48 h
# condition_parameters: 10 µM
# Protocol: Growth inhibition of the LOX IMVI human tumor cell line is measured as a screen for anti-cancer activity. Cells are grown in 96 well plates and exposed to the test compound for 48 hours. Compounds are tested at a single concentration, which is 10^-5 M for most compounds. The reported endpoint is percent growth (GI% or GIPRCNT), where numbers from 0 - 100% represent growth inhibition, and numbers from -100% - 0 represent cell death. For example, a value of 40 represents 60% growth inhibition. […]
The panel holds about 83,000 compounds, 20% with a hit somewhere; the sample as a whole holds those more often. Activity calls are given as the source filed them. The calls were made as follows: active = growth percent below 10; inactive = the rest.
Outcomes: active, inactive

[[record]]
compound = "NC(=O)NC(=O)c1ccc(Cl)cc1"
class_label = "inactive"

[[record]]
compound = "O=C(c1ccc(Cl)cc1)c1ccccc1Cl"
class_label = "inactive"

[[record]]
compound = "Cc1cc(C)c(CC(=O)O)c(C)c1"
class_label = "inactive"

[[record]]
compound = "CCCCC/C=N/Nc1nc(C)cc(=O)[nH]1"
class_label = "inactive"

[[record]]
compound = "Cc1ncc(C#N)c(N)n1"
class_label = "inactive"

[[record]]
compound = "O=[N+]([O-])c1ccc(-c2noc(-c3cccs3)n2)cc1"
class_label = "inactive"

[[record]]
compound = "CCOC(=O)c1cc(/C=C/c2ccc(Cl)cc2Cl)on1"
class_label = "active"

[[record]]
compound = "CC(=O)Nc1cccc(Cl)c1C"
class_label = "inactive"

[[record]]
compound = "CC(CN1CCCCC1)NC(=O)c1scnc1-c1ccccc1 (centres undefined)"
class_label = "inactive"

